Molecular target: GCase (Homo sapiens)
Construct: endogenous in cells; host or cells: HeLa cells
Sequence (P04062 40-536): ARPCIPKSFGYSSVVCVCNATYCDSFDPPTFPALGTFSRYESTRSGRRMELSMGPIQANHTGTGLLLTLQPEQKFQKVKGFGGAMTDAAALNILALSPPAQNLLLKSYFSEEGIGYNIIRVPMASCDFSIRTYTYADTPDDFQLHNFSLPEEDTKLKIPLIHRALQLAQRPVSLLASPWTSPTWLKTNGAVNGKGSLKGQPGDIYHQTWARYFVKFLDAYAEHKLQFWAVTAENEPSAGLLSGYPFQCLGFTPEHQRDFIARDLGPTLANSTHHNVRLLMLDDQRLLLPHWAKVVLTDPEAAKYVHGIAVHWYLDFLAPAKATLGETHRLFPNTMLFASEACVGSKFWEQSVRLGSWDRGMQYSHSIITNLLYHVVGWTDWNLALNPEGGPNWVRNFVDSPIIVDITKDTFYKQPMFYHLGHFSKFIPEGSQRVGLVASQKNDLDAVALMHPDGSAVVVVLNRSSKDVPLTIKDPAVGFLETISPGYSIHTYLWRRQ
Test: activation of GCase in a live cell PFB assay in HELA cells
Assay type: cell-based
Conditions: activation of GCase, EC50 ranges
pEC50: −log10 of the molar value.
pEC50 values, listed per item

Observe how each entry below is paired with its result.
Molecule	pEC50
Cc1nc(C(F)(F)F)ncc1N1CCC2(CCN(c3ncc4c(C)nn(CC(F)(F)F)c4n3)C2)C1 (stereo not shown) [Cmpd 658]	4.30 to 5.00
FC(F)Cn1ncc2ncc(N3CCC4(CN(c5cnc(C6CC6)nc5)C4)C3)nc21 [Cmpd 560]	4.30 to 5.00
CCn1nc(N2CCC3(CCN(c4cnc5cnn(CC(F)F)c5n4)CC3)C2=O)ccc1=O [Cmpd 847]	4.30 to 5.00

Query :: Give the value of pEC50 reported for the following: FC(F)Cn1ncc2ncc(N3CCC4(CC3)CC(Oc3cc(C(F)(F)F)ccn3)C4)nc21 [Cmpd 705]
Result :: 4.30 to 5.00

Query :: Give the value of pEC50 reported for the following: FC(F)Cn1ncc2ncc(N3CCC4(CC3)CN(c3ccnc(C(F)(F)F)c3)C4)nc21 [Compound 68]
Result :: > 5.00

Query :: Give the value of pEC50 reported for the following: Cn1c(=O)n(C2COC2)c2nc(N3CCC4(CN(c5ccnc(C(F)(F)F)c5)C4)C3)ncc21 [Cmpd 1141]
Result :: > 5.00

====

molecular target: GCase (Homo sapiens); construct: endogenous in cells; host or cells: HeLa cells; test: activation of GCase in a live cell PFB assay in HELA cells; type: cell-based; details: EC50 given as range classes
Test readout: EC50

Cc1nn(CC(F)F)c2nc(N3CCC4(CN(c5ccnc(C(F)(F)F)c5)C4)C3=O)ncc12 < 10 µM
Cc1cc(N2CC3(CCN(c4ncc5cnn(C6COC6)c5n4)C3)C2)nc(C(F)(F)F)n1 10 to 50 µM
O=C(c1ccc(Cl)cc1)N1CC2(CCN(c3cnc4cnn(CC(F)F)c4n3)C2)C1 > 100 µM

Now for a further compound.
Query :: Enter recorded EC50 with GCase (Homo sapiens) for O=C1CC2(CCN(c3cnc4cnn(CC(F)F)c4n3)CC2)CN1Cc1ccc(F)cn1 here.
Result :: 10 to 50 µM

====

biological target: GCase (Homo sapiens); construct: endogenous in cells; host or cells: HeLa cells; assay: activation of GCase in a live cell PFB assay in HELA cells; format: cell-based; details: activation of GCase, EC50 ranges
Test readout: EC50

Molecule	Target entity	Data value
Cc1cc(N2CC3(CCN(c4cnc5cnn(C6COC6)c5n4)CC3)CC2=O)nc(C(F)(F)F)n1	GCase (Homo sapiens)	10 to 50 µM

Query :: Give the value of EC50 reported for the following: Cc1cccc(-c2noc(C)c2C(=O)N2CCC3(CC2)CCN(c2cc(C(F)(F)F)ccn2)C3=O)c1
Result :: 10 to 50 µM

Query :: Give the value of EC50 reported for the following: CC(c1cncc(Cl)c1)N1CC2(CCN(c3cnc4cnn(CC(F)F)c4n3)CC2)CC1=O (centres unmarked)
Result :: < 10 µM

Query :: Give the value of EC50 reported for the following: CCn1c(-c2ccccc2)nc2ncc(N3CCC4(CN(c5ccnc(C(F)(F)F)c5)C4)C3)nc21
Result :: < 10 µM

Query :: Give the value of EC50 reported for the following: Cc1nc(N2CC3(CCN(c4cnc5cnn([C@@H]6CCOC6)c5n4)C3)C2)cc(C(F)(F)F)n1
Result :: < 10 µM

Query :: Give the value of EC50 reported for the following: FC(F)Cn1ncc2ncc(N3CCCC4(CC(Oc5ccc(C(F)(F)F)nc5)C4)C3)nc21 (centres unmarked)
Result :: 10 to 50 µM

Query :: Give the value of EC50 reported for the following: O=C1N(c2ccc(C(F)(F)F)nc2)C(c2ccccc2)CC12CCN(c1cnc3cnn(CC(F)F)c3n1)CC2 (centres unmarked)
Result :: < 10 µM

Query :: Give the value of EC50 reported for the following: FC(F)Cn1ncc2ncc(N3CC4(CCN(c5cnccc5C(F)(F)F)CC4)C3)nc21
Result :: 10 to 50 µM

====

Molecular target: GCase (Homo sapiens)
Construct: endogenous in cells; host or cells: HeLa cells
Sequence (P04062 40-536): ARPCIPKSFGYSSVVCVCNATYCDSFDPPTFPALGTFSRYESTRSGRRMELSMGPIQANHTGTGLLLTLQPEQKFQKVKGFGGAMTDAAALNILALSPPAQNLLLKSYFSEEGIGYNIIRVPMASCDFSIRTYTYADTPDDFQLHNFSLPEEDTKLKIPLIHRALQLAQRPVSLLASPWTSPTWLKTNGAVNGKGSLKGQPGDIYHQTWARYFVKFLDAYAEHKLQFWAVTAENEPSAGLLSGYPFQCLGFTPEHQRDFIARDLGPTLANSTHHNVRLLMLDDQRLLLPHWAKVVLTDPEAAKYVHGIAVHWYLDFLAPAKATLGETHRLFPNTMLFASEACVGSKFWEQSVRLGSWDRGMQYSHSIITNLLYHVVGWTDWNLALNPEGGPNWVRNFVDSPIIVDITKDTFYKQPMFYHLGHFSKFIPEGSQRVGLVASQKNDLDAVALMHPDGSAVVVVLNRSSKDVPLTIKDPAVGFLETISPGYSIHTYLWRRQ
Experiment: activation of GCase in a live cell PFB assay in HELA cells
Assay type: cell-based
Conditions: activation of GCase, EC50 ranges
Test readout: EC50

Compound	Data value
O=C1N(c2cnc3cnn(CC(F)F)c3n2)CCC12CN(c1ccnc(C(F)(F)F)c1)C2	10 to 50 µM

Now for a further compound.
Query :: Give the value of EC50 reported for the following: FC(F)Cn1ncc2ncc(N3CCCC4(CN(c5ccc(C(F)(F)F)cn5)C4)C3)nc21
Result :: 50 to 100 µM

====

Molecular target: GCase (Homo sapiens, UniProt P04062)
Construct: endogenous in cells; host or cells: HeLa cells
Assay: activation of GCase in a live cell PFB assay in HELA cells
Assay type: cell-based
Conditions: activation of GCase, EC50 ranges
Description: Exemplary compounds were evaluated for activation of GCase in a live cell PFB assay in HELA cells (essentially as described in Ysselstein et al., “LRRK2 kinase activity regulates lysosomal glucocerebrosidase in neurons derived from Parkinson's disease patients” Nature Communications (2019) 10:5570). […] EC50 ranges: A: <10 μM; B: >10-50 μM; C: >50-100 μM; D: >100 μM.
pEC50: −log10 of the molar value.
pEC50 values, listed per item

Observe how each entry below is paired with its result.
Cc1nc(N2CCC3(C2)CN(c2cnc4cnn(C5COC5)c4n2)C3)cc(C(F)(F)F)n1 > 5.00
CCCn1c(N2CCC3(CN(c4cc(C(F)(F)F)nc(C)n4)C3)C2)nc2c(cnn2CC(F)F)c1=O 4.30 to 5.00
FC(F)(F)Cn1ncc2ncc(N3CCC4(CN(c5ccnc(C(F)(F)F)c5)C4)C3)nc21 > 5.00

Now for a further compound.
Query :: Give the value of pEC50 reported for the following: O=C1N(c2cc(C(F)(F)F)ccn2)C(=O)C2(CCN(c3cnc4cnn(CC(F)F)c4n3)CC2)N1Cc1cccc(F)c1F
Result :: > 5.00

====

target: GCase (Homo sapiens, UniProt P04062); construct: endogenous in cells; host or cells: HeLa cells; assay: activation of GCase in a live cell PFB assay in HELA cells; assay type: cell-based; conditions: activation of GCase, EC50 ranges
EC50 values, listed per item

Compound	EC50
CC(C)c1ncc(N2CC3(CCN(c4cnc5cnn(CC(F)F)c5n4)C3)C2)cn1	10 to 50 µM
O=C1CC2(CCN(c3cnc4cnn(CC(F)F)c4n3)CC2)CN1Cc1ccnc(C(F)(F)F)c1F	< 10 µM
Cc1nnc(-c2cncc(N3CCC4(CN(c5ccnc(C(F)(F)F)c5)C4)C3)n2)s1	< 10 µM
Cc1nc(C(F)(F)F)nc(N2CC3(CCN(c4cnc5cnn(CC(F)F)c5n4)C3)C2)c1F	10 to 50 µM
FC(F)Cn1ncc2ncc(N3CCC4(CN(c5ccnc(C(F)(F)F)n5)C4)C3)nc21	10 to 50 µM
CCn1c(=O)n(CC(F)F)c2nc(N3CCC4(C3)CN(c3cnc(C)nc3C(F)(F)F)C4)ncc21	10 to 50 µM

Query :: Give the value of EC50 reported for the following: O=C1CC2(CCN(c3cncc(-c4nncs4)n3)CC2)CN1c1ccc(C(F)(F)F)nc1
Result :: < 10 µM

Query :: Give the value of EC50 reported for the following: O=C1CC2(CCN(c3cnc4cnn(CC(F)F)c4n3)CC2)CN1Cc1cc(C(F)(F)F)ccn1
Result :: < 10 µM

Query :: Give the value of EC50 reported for the following: Cc1nc(C(F)(F)F)ncc1N1CCC2(CCN(c3nc4c(cnn4CC(F)F)c(=O)n3C)CC2)C1
Result :: 10 to 50 µM

Query :: Give the value of EC50 reported for the following: FC(F)Cn1ncc2ncc(N3CCC4(CCC(Oc5ccncc5C(F)(F)F)C4)CC3)nc21 (stereo not shown)
Result :: < 10 µM

Query :: Give the value of EC50 reported for the following: Cc1nc(N2CC3(CCN(c4cnc5c(C)nn(C6COC6)c5n4)C3)C2)cc(C(F)(F)F)n1
Result :: 10 to 50 µM

Query :: Give the value of EC50 reported for the following: O=C1CC2(CCN(c3cnc4cnn(CC(F)F)c4n3)CC2)CN1Cc1cc(F)cc(F)c1
Result :: < 10 µM

Query :: Give the value of EC50 reported for the following: COc1nn(CC(F)F)c2nc(N3CCC4(CC3)CC(=O)N(c3ccnc(C(F)(F)F)c3)C4)cnc12
Result :: < 10 µM

Query :: Give the value of EC50 reported for the following: COc1nn(CC(F)F)c2nc(N3CCC4(CC3)CCN(c3cnc(C(F)(F)F)nc3C)C4)cnc12
Result :: < 10 µM

Query :: Give the value of EC50 reported for the following: FC(F)Cn1ncc2ncc(N3CCC4(CCC(Oc5ccc(C(F)(F)F)cn5)C4)CC3)nc21 (stereo not shown)
Result :: 10 to 50 µM

Query :: Give the value of EC50 reported for the following: Cc1cc(N2CC3(CCN(c4cnc5cnn(CC(F)F)c5n4)CC3)CC2=O)nc(C(F)(F)F)n1
Result :: < 10 µM
